TESTED_TARGET: Erf2 (Saccharomyces cerevisiae, UniProt Q06551)
Sequence (Q06551 whole entry): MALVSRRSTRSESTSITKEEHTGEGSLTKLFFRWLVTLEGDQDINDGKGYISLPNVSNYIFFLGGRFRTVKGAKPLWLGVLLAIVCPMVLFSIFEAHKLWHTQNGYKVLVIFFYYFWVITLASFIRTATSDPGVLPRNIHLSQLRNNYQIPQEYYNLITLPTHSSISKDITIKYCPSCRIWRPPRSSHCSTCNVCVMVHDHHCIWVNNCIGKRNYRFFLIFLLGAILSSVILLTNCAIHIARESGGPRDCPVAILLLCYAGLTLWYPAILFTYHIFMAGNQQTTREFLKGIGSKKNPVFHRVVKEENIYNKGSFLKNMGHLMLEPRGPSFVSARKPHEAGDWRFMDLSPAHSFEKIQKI
METHOD: fluorescence coupled autopalmitoylation assay with purified complex
REPORTED_ENDPOINT: IC50

[in] I would be grateful if you could share the reported IC50 for CCCCCCCCCCCCCCC(Br)C(=O)O (stereo not shown) [2-BP, 2-bromopalmitate] .
[out] ~100 µM
